experimental details: Cmax in Sprague-Dawley rat at 10 mg/kg, po
Format: ADME, organism-based
Set-up: dose 10 mg/kg, route oral
conditions used: in vivo

smiles string	unit abbreviation	Cmax
CNc1ncnc(-c2cccnc2Oc2ccc(F)c(C(=O)Nc3cc(C(F)(F)F)ccc3N(C)CCCN(C)C)c2)n1	ng/mL	520

----------
Recorded measurements of clearance, one per entry
experimental details: Clearance in iv dosed rat
Format: ADME, organism-based
conditions used: in vivo

smiles string	clearance
CNc1ncnc(-c2cccnc2Oc2ccc(F)c(C(=O)Nc3cc(C(F)(F)F)ccc3N(C)CCCN(C)C)c2)n1	21.7 mL/min/kg
CNc1ncnc(-c2cccnc2Oc2cc(C(=O)Nc3cc(C4CCCCC4)ccc3OC)ccc2C)n1	12.8 mL/min/kg
CNc1ncnc(-c2cccnc2Oc2ccc(F)c(C(=O)Nc3cc(C(C)C)ccc3N(C)CCCN(C)C)c2)n1	70 mL/min/kg
CNc1nccc(-c2cccnc2Oc2cc(C(=O)Nc3cc(C4CCCCC4)ccc3OC)ccc2C)n1	58.2 mL/min/kg
CNc1nccc(-c2cccnc2Oc2cc(C(=O)Nc3cc(C(F)(F)F)ccc3N3CCCCC3)ccc2F)n1	25.6 mL/min/kg
CNc1nccc(-c2cccnc2Oc2ccc(F)c(C(=O)Nc3cc(C(F)(F)F)ccc3N3CCCCC3)c2)n1	5.67 mL/min/kg
CNc1nccc(-c2cccnc2Oc2ccc(F)c(C(=O)Nc3cc(C(F)(F)F)ccc3N(C)CCCN(C)C)c2)n1	12 mL/min/kg
CNc1cc(-c2cccnc2Oc2cc(C(=O)Nc3cc(C4CCCCC4)ccc3OC)ccc2C)ccn1	98.3 mL/min/kg
CNc1nccc(-c2cccnc2Oc2cccc(C(=O)Nc3cc(C(F)(F)F)ccc3N3CCCCC3)c2)n1	54 mL/min/kg
CNc1ncnc(-c2cccnc2Oc2ccc(F)c(C(=O)Nc3cc(C4CC4)ccc3N(C)CCCN(C)C)c2)n1	45.5 mL/min/kg
CNc1nccc(-c2cccnc2Oc2cc(C(=O)Nc3cc(C(F)(F)F)ccc3N3CCCCC3)ccc2Cl)n1	21.6 mL/min/kg
CNc1ncnc(-c2cccnc2Oc2cc(C(=O)Nc3cc(C(F)(F)F)ccc3N(C)CCCN(C)C)ccc2C)n1	15.3 mL/min/kg

----------
system: RAC-alpha serine/threonine-protein kinase (Homo sapiens, UniProt P31749)
Sequence (P31749 whole entry): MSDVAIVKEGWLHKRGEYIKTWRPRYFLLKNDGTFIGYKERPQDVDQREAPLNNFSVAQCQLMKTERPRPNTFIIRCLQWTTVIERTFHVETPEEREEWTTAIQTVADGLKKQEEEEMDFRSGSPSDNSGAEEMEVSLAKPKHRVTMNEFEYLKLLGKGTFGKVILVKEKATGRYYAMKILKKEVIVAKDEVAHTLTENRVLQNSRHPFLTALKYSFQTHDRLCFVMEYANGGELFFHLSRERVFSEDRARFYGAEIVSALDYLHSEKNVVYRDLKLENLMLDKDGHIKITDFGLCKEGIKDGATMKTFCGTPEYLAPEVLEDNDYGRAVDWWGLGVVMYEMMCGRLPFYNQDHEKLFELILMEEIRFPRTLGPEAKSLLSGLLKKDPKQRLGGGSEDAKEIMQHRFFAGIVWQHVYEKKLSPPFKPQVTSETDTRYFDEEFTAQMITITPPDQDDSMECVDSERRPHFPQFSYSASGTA
measurement name: IC50 (µM)

smiles string	obs value
CNc1ncnc(-c2cccnc2Oc2ccc(F)c(C(=O)Nc3cc(C(F)(F)F)ccc3N(C)CCCN(C)C)c2)n1	100

----------
Parameter IC50, tested on Vascular endothelial growth factor receptor 2 (Homo sapiens, UniProt P35968), listed per item.
Sequence (P35968 whole entry): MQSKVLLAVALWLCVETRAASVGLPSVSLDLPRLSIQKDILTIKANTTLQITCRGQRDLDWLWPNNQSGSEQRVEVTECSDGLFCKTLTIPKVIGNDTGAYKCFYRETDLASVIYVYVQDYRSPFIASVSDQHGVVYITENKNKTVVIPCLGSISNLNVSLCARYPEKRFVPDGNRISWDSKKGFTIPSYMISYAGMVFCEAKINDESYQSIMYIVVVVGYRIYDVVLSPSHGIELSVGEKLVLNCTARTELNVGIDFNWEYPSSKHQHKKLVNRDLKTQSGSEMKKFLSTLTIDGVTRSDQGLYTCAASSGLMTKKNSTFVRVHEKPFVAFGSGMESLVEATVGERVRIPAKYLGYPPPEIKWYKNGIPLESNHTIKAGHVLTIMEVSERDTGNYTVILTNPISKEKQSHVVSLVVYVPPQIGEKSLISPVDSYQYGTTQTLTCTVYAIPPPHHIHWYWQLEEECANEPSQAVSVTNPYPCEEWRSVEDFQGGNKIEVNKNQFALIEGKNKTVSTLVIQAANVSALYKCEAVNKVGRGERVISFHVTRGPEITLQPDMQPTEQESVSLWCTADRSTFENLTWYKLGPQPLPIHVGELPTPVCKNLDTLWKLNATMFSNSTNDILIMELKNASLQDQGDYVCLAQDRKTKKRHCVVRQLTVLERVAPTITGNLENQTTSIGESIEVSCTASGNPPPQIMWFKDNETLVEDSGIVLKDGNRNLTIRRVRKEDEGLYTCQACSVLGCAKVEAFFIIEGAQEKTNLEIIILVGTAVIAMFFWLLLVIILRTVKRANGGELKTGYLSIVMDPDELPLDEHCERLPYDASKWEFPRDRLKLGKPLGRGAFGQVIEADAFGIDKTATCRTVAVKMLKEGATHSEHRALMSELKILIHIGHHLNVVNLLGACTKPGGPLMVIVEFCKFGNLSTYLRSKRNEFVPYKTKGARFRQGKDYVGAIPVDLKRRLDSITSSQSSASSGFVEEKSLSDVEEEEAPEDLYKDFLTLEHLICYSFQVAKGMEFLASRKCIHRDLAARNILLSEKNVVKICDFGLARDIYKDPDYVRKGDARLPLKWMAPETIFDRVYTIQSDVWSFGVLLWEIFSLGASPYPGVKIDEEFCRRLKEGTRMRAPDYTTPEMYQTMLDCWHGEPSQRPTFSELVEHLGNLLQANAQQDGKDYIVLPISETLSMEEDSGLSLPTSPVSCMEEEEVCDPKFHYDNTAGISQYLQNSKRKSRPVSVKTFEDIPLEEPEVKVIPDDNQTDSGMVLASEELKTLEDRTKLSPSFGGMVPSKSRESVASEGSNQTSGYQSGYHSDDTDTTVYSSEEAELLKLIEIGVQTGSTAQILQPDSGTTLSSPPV
measurement name: IC50

smiles string	measurement name	obs value
CNc1nccc(-c2cc(C)cnc2Oc2cccc(C(=O)Nc3cc(C(F)(F)F)ccc3N3CCCCC3)c2C)n1	IC50	2.6 µM
COc1ccc(C2CCCCC2)cc1NC(=O)c1ccc(C)c(Oc2ncccc2-c2ccnc3ccccc23)c1	IC50	> 25 µM
COc1ccc(C2CCCCC2)cc1NC(=O)c1ccc(C)c(Oc2ncccc2-c2ncnc3cc(OC)c(OC)cc23)c1	IC50	> 25 µM

----------
experimental details: Dissociation constant, pKa of the compound
Format: physicochemical

smiles string	pKa
CNc1ncnc(-c2cccnc2Oc2ccc(F)c(C(=O)Nc3cc(C(F)(F)F)ccc3N(C)CCCN(C)C)c2)n1	9.5

----------
experimental details: Solubility in simulated intestinal fluid at pH 6.8
Type: physicochemical

smiles string	solubility
CNc1ncnc(-c2cccnc2Oc2ccc(F)c(C(=O)Nc3cc(C(F)(F)F)ccc3N(C)CCCN(C)C)c2)n1	340 µg/mL
